Ki for assorted compounds
system.under.test: human EP4 receptor (Homo sapiens, UniProt P35408)
Construct: expressed in transfected cells; HEK-293 is named only for the cAMP assay
Sequence (P35408 whole entry): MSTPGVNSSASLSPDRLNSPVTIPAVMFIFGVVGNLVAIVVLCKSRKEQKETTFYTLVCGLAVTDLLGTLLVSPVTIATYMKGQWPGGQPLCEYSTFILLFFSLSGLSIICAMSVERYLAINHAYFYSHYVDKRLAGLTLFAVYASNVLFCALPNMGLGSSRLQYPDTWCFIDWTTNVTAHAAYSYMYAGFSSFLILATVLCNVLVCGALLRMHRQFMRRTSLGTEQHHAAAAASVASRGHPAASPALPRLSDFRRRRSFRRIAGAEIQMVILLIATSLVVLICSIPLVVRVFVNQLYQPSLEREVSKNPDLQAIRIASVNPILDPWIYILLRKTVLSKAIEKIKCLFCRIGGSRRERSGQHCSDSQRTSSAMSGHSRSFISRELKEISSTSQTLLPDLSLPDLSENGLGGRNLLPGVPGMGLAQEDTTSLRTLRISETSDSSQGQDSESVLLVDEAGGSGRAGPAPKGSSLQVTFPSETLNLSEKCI
test.method.notes: Binding ability to human EP receptors, [3H]PGE2 displacement, EP4
condition.details: membranes expressing human EP4 receptor; [3H]PGE2 1 nM; Cheng-Prusoff; read-out: pKi (M) EP4 (converted)

A selection of reference data follows.
>  <compound>
O=C(O)C=Cc1cccc(NC(=O)c2ccc3oc4ccccc4c3c2)c1 [Compound 20]

>  <result.value>
> 1e-06 M

$$$$
>  <compound>
O=C(O)C=Cc1cccc(NC(=O)c2ccc(C(=O)c3ccccc3)o2)c1 [Compound 11]

>  <result.value>
> 1e-06 M

$$$$
>  <compound>
O=C(O)C=Cc1cccc(NC(=O)c2ccc(Oc3ccccc3)o2)c1 [Compound 5]

>  <result.value>
> 1e-06 M

$$$$
>  <compound>
O=C(O)C=Cc1ccc(Cl)c(NC(=O)c2cc(-c3ccccc3)ccc2F)c1 [Compound 52]

>  <result.value>
> 1e-07 M

$$$$

Requested read-out: Ki. Entry: O=C(O)C=Cc1cccc(Sc2cccc(-c3ccccc3)n2)c1 [Compound 16]
> 1e-06 M

###

system.under.test: human EP2 receptor (Homo sapiens)
Construct: expressed in transfected cells; HEK-293 is named only for the cAMP assay
Sequence (P43116 whole entry): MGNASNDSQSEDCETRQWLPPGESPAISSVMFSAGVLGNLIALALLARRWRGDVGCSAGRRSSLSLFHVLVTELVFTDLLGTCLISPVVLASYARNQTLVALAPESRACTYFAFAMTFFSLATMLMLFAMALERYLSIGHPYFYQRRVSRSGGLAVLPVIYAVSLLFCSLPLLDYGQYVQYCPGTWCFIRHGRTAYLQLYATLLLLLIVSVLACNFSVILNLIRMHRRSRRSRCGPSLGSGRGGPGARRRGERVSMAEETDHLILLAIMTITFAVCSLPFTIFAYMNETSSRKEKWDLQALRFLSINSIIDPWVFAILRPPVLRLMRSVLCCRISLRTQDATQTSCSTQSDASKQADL
test.method.notes: Binding ability to human EP receptors, [3H]PGE2 displacement, EP2
condition.details: membranes expressing human EP2 receptor; [3H]PGE2 3 nM; Cheng-Prusoff; read-out: pKi (M) EP2 (converted)
Recorded Ki for the following compounds

Example entries and their recorded answers appear below.
>  <compound.structure>
N=C(Nc1cccc(C=CC(=O)O)c1)c1cc(-c2ccccc2)ccc1F

>  <result.value>
< 1e-06 M

$$$$
>  <compound.structure>
O=C(O)C=Cc1cccc(NC(=O)c2ccc(Oc3ccccc3)o2)c1

>  <result.value>
< 1e-07 M

$$$$
>  <compound.structure>
O=C(O)C=Cc1ccc(F)c(NC(=O)c2ccc(-c3ccccc3)o2)c1

>  <result.value>
< 1e-07 M

$$$$

Provide the documented Ki with human EP2 receptor (Homo sapiens) as the system for O=C(O)C=Cc1cccc(NC(=O)c2ccc3oc4ccccc4c3c2)c1
< 1e-07 M

Also need O=C(O)C=Cc1cccc(NC(=O)c2ccc(-c3ccccc3)o2)n1 , thanks.
< 1e-06 M

###

system.under.test: human EP2 receptor (Homo sapiens)
Construct: expressed in transfected cells; HEK-293 is named only for the cAMP assay
test.method.notes: Binding ability to human EP receptors, [3H]PGE2 displacement, EP2
condition.details: membranes expressing human EP2 receptor; [3H]PGE2 3 nM; Cheng-Prusoff; read-out: pKi (M) EP2 (converted)
reported.property: Ki

# count of solved cases: 5
>  <compound>
O=C(O)C=Cc1cccc(C=Cc2ccc(-c3ccccc3)o2)c1

>  <reported.property>
Ki

>  <result.value>
< 1e-06 M

$$$$
>  <compound>
O=C(O)C=Cc1cccc(CC(O)c2ccc(-c3ccccc3)o2)c1 (stereo not drawn)

>  <reported.property>
Ki

>  <result.value>
< 1e-06 M

$$$$
>  <compound>
O=C(O)C=Cc1ccc(Cl)c(NC(=O)c2cc(-c3ccccc3)ccc2F)c1

>  <reported.property>
Ki

>  <result.value>
< 1e-08 M

$$$$
>  <compound>
O=C(O)C=Cc1cccc(Sc2cccc(-c3ccccc3)n2)c1

>  <reported.property>
Ki

>  <result.value>
< 1e-06 M

$$$$
>  <compound>
O=C(O)C=Cc1cccc(NC(=O)c2ccc(C(=O)c3ccccc3)o2)c1

>  <reported.property>
Ki

>  <result.value>
< 1e-07 M

$$$$

// switching to the query compound
Reported Ki for O=C(O)C=Cc1cccc(-c2nc3cc(-c4ccccc4)ccc3o2)c1 : what is it?
< 1e-06 M
